# assay-protocol: Cytotoxicity against human MG63 cells after 48 hrs by MTT assay
# Type: functional, cell-based
# particulars: MG-63, 48 h, read-out: IC50
Provide the recorded pIC50 for the entries that follow.
Give bare numbers, as −log10 of the molar value.

CCCCCCCCCC(=O)O[C@H]1[C@H](O[C@@H]2[C@H]3OC(=O)CCCCCCCCC[C@H](CCCCC)O[C@@H]4O[C@H](C)[C@H](O)[C@H](O)[C@H]4O[C@H](O[C@H]2C)[C@@H]3O)O[C@@H](C)[C@H](O[C@@H]2O[C@@H](C)[C@H](OC(=O)CCCCCCC)[C@@H](O)[C@H]2O)[C@H]1O[C@@H]1O[C@@H](C)[C@H](O)[C@@H](O)[C@H]1O : 5.22
CCCCCCCC(=O)O[C@@H]1[C@@H](O)[C@@H](O)[C@H](O[C@@H]2[C@@H](O[C@@H]3O[C@@H](C)[C@H](O)[C@@H](O)[C@H]3O)[C@@H](OC(=O)[C@@H](C)CC)[C@H](O[C@@H]3[C@H]4OC(=O)CCCCCCCCC[C@H](CCCCC)O[C@@H]5O[C@H](C)[C@H](O)[C@H](O)[C@H]5O[C@H](O[C@H]3C)[C@@H]4O)O[C@H]2C)O[C@H]1C : 5.11
CCCCCCCC(=O)O[C@@H]1[C@@H](O)[C@@H](O)[C@H](O[C@@H]2[C@@H](O[C@@H]3O[C@@H](C)[C@H](O)[C@@H](O)[C@H]3O)[C@@H](OC(=O)CCCCCCC)[C@H](O[C@@H]3[C@H]4OC(=O)CCCCCCCCC[C@H](CCCCC)O[C@@H]5O[C@H](C)[C@H](O)[C@H](O)[C@H]5O[C@H](O[C@H]3C)[C@@H]4O)O[C@H]2C)O[C@H]1C : 5.43

Data request: I have this molecule here, CCCCCCCC(=O)O[C@@H]1[C@@H](O)[C@@H](O)[C@H](O[C@@H]2[C@@H](O[C@@H]3O[C@H](CO)[C@@H](O)[C@H](O)[C@H]3O)[C@@H](OC(=O)CCCCCCC)[C@H](O[C@@H]3[C@H]4OC(=O)CCCCCCCCC[C@H](CCCCC)O[C@@H]5O[C@H](C)[C@H](O)[C@H](O)[C@H]5O[C@H](O[C@H]3C)[C@@H]4O)O[C@H]2C)O[C@H]1C , and I need its recorded pIC50.
Data returned: 5.27
